Test system: SARS-CoV-2 (strain NTU02) in Vero E6 cells
test_name: microbe, parasite or virus in culture
Assay type: cell-based
stated_conditions: Severe acute respiratory syndrome coronavirus 2, Vero C1008, 48 h, read-out: half maximal effective concentration (EC50)
assay_readout: EC50

Prompt: Entry COc1cc(C)c2c(Oc3cccc(C(F)(F)F)c3)c(OC)cc(NC(C)CCCN)c2n1 (stereo not shown) has what EC50?
Response: ~2500 nM

Reference source: patent US20210330661A1
